B1: LMNB1 (parent)
chain: LYKEELEQTYHAKLENARLSSEMN

# Variants of: B1
# assay-explanation: protein stability index of a GFP-peptide fusion (GPS, HEK-293T) (PSI 1-6); higher = more stable;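 also: lentivirally expressed fusions sorted by FACS into six bins by GFP to DsRed ratio, PSI derived from sequencing read proportions per bin multiplied by bin number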
# condition-context: c terminus: a fixed tail appended
Reported protein stability index values follow for various variants
A bare number is all that is needed in reply.

Ask | I am curious: what protein stability index value has been reported for `L14P` ?
Reply | 5

Ask | Follow-up entry: `L1Q`
Reply | 3.6

Ask | Entry to check: `R18T`
Reply | 2.73
